- target desc: phosphorylated Syk (p-Syk) in THP-1 cells (Homo sapiens)
- Construct: endogenous in cells
- protocol: p-Syk ELISA in IgG-stimulated THP-1 cells (FcγR signal)
- Excerpt: THP-1 and Ramos cell lines and human CD14^+ monocytes were purchased from the American Type Culture Collection (ATCC) and Lonza, respectively. […] Ramos cells (A), human primary monocytes (B), and THP cells (C) were pretreated with inhibitors at the indicated concentrations and stimulated with anti-human IgM (A) and human IgG (B and C). […] The relative intensities of protein phosphorylation levels were quantitated with reference to each lane of β-actin control bands. […]
pIC50: −log10 of the molar value.
assay metric: pIC50

[[record]]
line_notation = "Cc1nn(-c2ccnc(Nc3ccc4c(c3)c(C(=O)C3CC3)cn4C)n2)cc1CN1C[C@H](O)CO1"
value_observed = 6.58


----------
- target desc: KOR
- protocol: Kinase assay (LANCE Ultra TR-FRET), KOR
- measurement conditions: kinase activity, TR-FRET
pIC50: −log10 of the molar value.
Overview of recorded pIC50 for various compounds
assay metric: pIC50

[[record]]
compound = "Cc1nn(-c2ccnc(Nc3ccc4c(c3)c(C(=O)C3CC3)cn4C)n2)cc1CN1C[C@H](O)CO1 [SKI-O-592]"
target_desc = "KOR"
assay_metric = "pIC50"
value_observed = 6.16

[[record]]
compound = "COc1cc(Nc2ncc(F)c(Nc3ccc4c(n3)NC(=O)C(C)(C)O4)n2)cc(OC)c1OC [R406, reference compound]"
target_desc = "KOR"
assay_metric = "pIC50"
value_observed = 7.73


----------
- target desc: phosphorylated Syk (p-Syk) in human CD14+ monocytes (Homo sapiens, UniProt P43405)
- Construct: endogenous in cells
- protocol: p-Syk ELISA in IgG-stimulated human CD14+ monocytes (FcγR signal)
assay metric: IC50 (nM)

[[record]]
line_notation = "Cc1nn(-c2ccnc(Nc3ccc4c(c3)c(C(=O)C3CC3)cn4C)n2)cc1CN1C[C@H](O)CO1"
target_desc = "phosphorylated Syk (p-Syk) in human CD14+ monocytes (Homo sapiens, UniProt P43405)"
value_observed = 191


----------
- target desc: Jak2 (Homo sapiens)
- Sequence (O60674 whole entry, species assumed): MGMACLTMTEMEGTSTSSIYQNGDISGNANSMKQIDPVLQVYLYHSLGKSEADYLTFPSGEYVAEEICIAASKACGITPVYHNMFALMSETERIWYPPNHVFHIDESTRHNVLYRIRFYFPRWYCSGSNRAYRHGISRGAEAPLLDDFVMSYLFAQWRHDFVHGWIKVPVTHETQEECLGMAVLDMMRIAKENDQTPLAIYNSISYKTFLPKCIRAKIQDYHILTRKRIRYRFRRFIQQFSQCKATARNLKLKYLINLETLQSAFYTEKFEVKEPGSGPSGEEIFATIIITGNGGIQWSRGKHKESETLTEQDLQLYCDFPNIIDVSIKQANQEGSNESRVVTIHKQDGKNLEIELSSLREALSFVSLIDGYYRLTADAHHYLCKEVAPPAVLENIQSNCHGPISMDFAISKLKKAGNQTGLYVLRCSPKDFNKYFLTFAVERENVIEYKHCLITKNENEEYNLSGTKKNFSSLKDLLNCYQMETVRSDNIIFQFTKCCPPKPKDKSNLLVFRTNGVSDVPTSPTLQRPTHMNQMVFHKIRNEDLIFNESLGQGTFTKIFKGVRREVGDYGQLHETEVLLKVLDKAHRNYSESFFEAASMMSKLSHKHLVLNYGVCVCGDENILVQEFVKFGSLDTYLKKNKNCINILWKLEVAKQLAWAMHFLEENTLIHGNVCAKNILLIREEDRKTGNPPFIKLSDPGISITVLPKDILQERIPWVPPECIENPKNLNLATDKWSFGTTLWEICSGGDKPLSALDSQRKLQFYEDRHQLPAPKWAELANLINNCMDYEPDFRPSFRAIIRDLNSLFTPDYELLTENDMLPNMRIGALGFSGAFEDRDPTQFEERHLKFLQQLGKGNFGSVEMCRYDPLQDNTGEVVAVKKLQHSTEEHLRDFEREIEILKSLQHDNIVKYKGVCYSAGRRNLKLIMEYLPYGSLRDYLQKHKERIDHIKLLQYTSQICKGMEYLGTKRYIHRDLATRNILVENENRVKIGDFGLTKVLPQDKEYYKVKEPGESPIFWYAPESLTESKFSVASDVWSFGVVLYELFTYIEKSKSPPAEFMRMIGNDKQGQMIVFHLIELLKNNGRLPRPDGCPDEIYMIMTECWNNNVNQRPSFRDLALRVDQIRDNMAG
assay metric: IC50 (nM)

[[record]]
line_notation = "Cc1nn(-c2ccnc(Nc3ccc4c(c3)c(C(=O)C3CC3)cn4C)n2)cc1CN1C[C@H](O)CO1"
assay_metric = "IC50"
value_observed = 1860


----------
- target desc: Jak3 (Homo sapiens, UniProt P52333)
- Sequence (P52333 1-1124): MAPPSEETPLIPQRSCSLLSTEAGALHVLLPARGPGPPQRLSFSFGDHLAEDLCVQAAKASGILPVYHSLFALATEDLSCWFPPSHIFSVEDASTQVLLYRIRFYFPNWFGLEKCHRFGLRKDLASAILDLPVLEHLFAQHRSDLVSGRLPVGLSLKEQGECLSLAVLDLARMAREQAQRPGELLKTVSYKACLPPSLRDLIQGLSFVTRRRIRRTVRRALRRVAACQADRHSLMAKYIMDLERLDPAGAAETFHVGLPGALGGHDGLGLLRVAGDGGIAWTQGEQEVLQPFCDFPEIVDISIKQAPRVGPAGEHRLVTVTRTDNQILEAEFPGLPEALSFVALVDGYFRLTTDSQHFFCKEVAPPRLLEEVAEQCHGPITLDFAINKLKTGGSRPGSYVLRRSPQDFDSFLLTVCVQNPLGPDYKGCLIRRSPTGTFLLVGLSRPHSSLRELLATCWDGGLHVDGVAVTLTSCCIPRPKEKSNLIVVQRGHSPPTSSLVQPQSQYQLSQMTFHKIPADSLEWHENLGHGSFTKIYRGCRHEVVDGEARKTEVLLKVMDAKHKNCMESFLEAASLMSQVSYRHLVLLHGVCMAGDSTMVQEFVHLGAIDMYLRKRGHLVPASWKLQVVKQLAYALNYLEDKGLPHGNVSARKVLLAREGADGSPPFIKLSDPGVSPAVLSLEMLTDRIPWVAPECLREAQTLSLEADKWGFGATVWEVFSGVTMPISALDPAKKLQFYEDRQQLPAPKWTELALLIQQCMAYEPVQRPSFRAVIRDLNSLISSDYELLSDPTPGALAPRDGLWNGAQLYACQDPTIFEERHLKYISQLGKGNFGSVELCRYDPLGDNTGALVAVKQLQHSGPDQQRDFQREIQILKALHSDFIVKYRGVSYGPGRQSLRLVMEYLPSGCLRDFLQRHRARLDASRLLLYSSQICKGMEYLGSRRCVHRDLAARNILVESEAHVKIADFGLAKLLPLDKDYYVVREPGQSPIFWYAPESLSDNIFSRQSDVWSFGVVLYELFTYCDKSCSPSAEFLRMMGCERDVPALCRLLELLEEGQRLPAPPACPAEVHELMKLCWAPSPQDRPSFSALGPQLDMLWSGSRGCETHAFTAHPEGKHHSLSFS
- protocol: Kinase assay (LANCE Ultra TR-FRET), Jak3
- Type: biochemical
- measurement conditions: kinase activity, TR-FRET
pIC50: −log10 of the molar value.
assay metric: pIC50

[[record]]
line_notation = "Cc1nn(-c2ccnc(Nc3ccc4c(c3)c(C(=O)C3CC3)cn4C)n2)cc1CN1C[C@H](O)CO1"
target_desc = "Jak3 (Homo sapiens, UniProt P52333)"
assay_metric = "pIC50"
value_observed = 5.24


----------
- target desc: Pyk2 (Homo sapiens, UniProt Q14289)
- Sequence (Q14289 whole entry, species assumed): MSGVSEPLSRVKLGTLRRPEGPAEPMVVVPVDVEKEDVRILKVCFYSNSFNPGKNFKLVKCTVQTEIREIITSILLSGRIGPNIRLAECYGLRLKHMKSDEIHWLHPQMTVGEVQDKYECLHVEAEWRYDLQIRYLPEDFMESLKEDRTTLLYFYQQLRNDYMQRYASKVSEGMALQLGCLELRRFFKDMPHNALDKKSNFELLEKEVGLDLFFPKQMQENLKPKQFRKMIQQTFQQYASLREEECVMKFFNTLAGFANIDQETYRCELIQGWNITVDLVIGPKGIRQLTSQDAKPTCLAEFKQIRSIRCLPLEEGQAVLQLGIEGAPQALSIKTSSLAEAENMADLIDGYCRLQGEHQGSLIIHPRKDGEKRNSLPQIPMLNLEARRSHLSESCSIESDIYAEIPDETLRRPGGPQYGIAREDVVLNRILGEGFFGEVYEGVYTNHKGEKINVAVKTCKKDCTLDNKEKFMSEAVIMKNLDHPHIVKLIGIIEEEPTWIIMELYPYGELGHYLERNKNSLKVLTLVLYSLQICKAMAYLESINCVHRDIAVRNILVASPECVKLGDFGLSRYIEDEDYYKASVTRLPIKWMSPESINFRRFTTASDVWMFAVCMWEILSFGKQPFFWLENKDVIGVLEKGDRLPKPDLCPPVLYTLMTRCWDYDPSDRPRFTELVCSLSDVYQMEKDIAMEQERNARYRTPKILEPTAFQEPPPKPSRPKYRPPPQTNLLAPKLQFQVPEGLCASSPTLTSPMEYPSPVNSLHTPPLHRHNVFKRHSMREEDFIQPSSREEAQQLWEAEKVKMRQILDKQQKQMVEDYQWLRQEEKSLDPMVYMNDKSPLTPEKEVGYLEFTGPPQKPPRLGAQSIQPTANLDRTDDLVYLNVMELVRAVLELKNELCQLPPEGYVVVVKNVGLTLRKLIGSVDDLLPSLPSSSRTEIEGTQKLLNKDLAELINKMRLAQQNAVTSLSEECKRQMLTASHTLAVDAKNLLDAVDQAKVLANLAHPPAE
pIC50: −log10 of the molar value.
assay metric: pIC50

[[record]]
line_notation = "Cc1nn(-c2ccnc(Nc3ccc4c(c3)c(C(=O)C3CC3)cn4C)n2)cc1CN1C[C@H](O)CO1"
target_desc = "Pyk2 (Homo sapiens, UniProt Q14289)"
value_observed = 6.15


----------
- target desc: RET (Homo sapiens, UniProt P07949)
- Sequence (P07949 29-1114, species assumed): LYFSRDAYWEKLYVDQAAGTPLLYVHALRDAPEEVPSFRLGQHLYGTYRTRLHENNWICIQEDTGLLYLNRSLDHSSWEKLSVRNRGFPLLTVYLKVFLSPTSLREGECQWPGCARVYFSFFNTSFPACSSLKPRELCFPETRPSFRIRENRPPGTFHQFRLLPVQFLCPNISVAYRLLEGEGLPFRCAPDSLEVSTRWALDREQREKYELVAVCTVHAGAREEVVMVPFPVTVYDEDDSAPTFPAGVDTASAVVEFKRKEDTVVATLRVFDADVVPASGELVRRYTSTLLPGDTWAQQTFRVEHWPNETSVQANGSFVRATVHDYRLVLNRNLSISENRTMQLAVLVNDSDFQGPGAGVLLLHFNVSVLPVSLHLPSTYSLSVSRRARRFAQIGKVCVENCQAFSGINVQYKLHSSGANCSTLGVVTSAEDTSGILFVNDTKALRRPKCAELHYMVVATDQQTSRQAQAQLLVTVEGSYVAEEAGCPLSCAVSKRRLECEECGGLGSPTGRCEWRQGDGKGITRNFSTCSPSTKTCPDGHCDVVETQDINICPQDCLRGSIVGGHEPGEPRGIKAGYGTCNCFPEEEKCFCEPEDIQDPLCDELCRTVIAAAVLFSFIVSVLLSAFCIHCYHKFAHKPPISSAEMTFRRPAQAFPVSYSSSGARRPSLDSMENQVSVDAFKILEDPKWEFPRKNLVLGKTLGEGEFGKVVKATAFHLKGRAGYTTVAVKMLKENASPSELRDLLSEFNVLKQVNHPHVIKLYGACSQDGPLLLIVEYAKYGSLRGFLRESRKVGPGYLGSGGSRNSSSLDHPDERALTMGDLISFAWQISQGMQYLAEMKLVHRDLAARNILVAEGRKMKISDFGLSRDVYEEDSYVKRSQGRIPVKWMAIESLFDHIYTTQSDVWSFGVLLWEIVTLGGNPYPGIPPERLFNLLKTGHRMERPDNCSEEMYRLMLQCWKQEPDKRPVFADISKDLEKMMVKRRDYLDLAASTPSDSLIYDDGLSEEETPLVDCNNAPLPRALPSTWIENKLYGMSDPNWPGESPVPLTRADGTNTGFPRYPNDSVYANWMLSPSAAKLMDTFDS
assay metric: IC50

[[record]]
line_notation = "Cc1nn(-c2ccnc(Nc3ccc4c(c3)c(C(=O)C3CC3)cn4C)n2)cc1CN1C[C@H](O)CO1"
target_desc = "RET (Homo sapiens, UniProt P07949)"
value_observed = "412 nM"


----------
- target desc: UniProtKB P22607
- Sequence (P22607 23-806, species assumed): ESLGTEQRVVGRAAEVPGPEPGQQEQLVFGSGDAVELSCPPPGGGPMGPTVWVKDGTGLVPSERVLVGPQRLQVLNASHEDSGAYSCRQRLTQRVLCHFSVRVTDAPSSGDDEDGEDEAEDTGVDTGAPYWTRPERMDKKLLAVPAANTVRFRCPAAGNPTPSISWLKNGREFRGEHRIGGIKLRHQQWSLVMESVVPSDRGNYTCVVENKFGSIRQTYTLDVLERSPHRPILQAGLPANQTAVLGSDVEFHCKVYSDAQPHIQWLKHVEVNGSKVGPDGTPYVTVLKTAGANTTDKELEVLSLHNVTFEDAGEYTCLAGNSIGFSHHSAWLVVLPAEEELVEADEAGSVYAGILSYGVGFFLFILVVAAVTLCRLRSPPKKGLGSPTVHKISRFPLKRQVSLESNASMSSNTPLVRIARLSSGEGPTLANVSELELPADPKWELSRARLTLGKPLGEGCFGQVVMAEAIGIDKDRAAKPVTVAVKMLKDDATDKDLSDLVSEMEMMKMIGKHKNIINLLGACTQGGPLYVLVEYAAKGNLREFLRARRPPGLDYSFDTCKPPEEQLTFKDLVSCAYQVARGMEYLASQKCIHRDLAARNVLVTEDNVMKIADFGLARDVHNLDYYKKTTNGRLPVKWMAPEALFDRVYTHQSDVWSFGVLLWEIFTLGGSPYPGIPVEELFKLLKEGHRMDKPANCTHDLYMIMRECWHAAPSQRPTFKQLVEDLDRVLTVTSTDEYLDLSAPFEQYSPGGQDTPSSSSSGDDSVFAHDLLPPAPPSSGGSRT
assay metric: IC50

[[record]]
molecule = "Cc1nn(-c2ccnc(Nc3ccc4c(c3)c(C(=O)C3CC3)cn4C)n2)cc1CN1C[C@H](O)CO1 [SKI-O-592]"
assay_metric = "IC50"
value_observed = "5.66 µM"


----------
- target desc: phosphorylated Syk (p-Syk) in Ramos cells (Homo sapiens)
- Construct: endogenous in cells
- protocol: p-Syk ELISA in anti-IgM-stimulated Ramos cells (BCR signal)
pIC50: −log10 of the molar value.
assay metric: pIC50

[[record]]
line_notation = "Cc1nn(-c2ccnc(Nc3ccc4c(c3)c(C(=O)C3CC3)cn4C)n2)cc1CN1C[C@H](O)CO1"
value_observed = 6.55


----------
- target desc: Syk (Homo sapiens, UniProt P43405)
assay metric: IC50 (nM)

[[record]]
compound = "Cc1nn(-c2ccnc(Nc3ccc4c(c3)c(C(=O)C3CC3)cn4C)n2)cc1CN1C[C@H](O)CO1 [SKI-O-592]"
unit_descriptor = "nM"
value_observed = 6.2

